Molecular target: Stp1 (UniProt B3LFK1)
Sequence: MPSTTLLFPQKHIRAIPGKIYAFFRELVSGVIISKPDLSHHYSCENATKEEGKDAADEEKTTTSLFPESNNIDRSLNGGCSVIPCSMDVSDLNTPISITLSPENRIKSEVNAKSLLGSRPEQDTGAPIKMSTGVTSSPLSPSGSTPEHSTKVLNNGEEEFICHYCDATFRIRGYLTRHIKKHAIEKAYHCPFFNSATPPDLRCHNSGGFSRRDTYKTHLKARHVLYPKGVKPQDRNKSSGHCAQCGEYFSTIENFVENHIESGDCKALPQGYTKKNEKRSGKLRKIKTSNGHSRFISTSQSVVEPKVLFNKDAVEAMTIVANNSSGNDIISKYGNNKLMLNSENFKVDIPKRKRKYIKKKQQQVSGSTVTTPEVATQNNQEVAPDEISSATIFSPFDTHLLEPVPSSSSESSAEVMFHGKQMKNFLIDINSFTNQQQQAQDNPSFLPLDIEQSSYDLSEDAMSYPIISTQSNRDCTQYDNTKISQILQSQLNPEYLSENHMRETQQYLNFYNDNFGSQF
Experiment: PBM E-score (8-mer binding enrichment) (E-score (-0.5 to 0.5)); higher = stronger / more preferred TF binding
Details: protein concentration: 200 nM; construct: GST-full length
The full ranking holds about 33,000 sequences; the median of “E-score (-0.5 to 0.5)” is about -0.016, and the highest 2% start at about 0.32. The list comes from a sample in which the highest values are over-represented; it also holds close analogues and randomly drawn sequences.
Entries and their PBM E-score values follow.

Input line: Entry AAAAACGA : reported PBM E-score = ?
Output line: 0.128

Input line: I'd like to know its PBM E-score. The sequence in question is GCCTTGCA
Output line: 0.33

Input line: Given the sequence CCCGTTCC , what is its reported PBM E-score?
Output line: -0.00751

Input line: GET /values?readout=PBM E-score&item= AGCCGTGG
Output line: 0.334

More entries:
Input line: Recorded PBM E-score for AATTGCCG , please?
Output line: 0.341

Input line: Given ACCTCACC , state its recorded PBM E-score.
Output line: -0.128

Input line: Bench note: what PBM E-score did CTCCGTGC show?
Output line: 0.228

Input line: Fill blank: measured PBM E-score of the sequence ACCGCTTA is ____.
Output line: -0.238

Input line: Entry AGGGATTG has what PBM E-score?
Output line: -0.0197

----------
Biological target: Stp1 (UniProt B3LFK1)
Sequence: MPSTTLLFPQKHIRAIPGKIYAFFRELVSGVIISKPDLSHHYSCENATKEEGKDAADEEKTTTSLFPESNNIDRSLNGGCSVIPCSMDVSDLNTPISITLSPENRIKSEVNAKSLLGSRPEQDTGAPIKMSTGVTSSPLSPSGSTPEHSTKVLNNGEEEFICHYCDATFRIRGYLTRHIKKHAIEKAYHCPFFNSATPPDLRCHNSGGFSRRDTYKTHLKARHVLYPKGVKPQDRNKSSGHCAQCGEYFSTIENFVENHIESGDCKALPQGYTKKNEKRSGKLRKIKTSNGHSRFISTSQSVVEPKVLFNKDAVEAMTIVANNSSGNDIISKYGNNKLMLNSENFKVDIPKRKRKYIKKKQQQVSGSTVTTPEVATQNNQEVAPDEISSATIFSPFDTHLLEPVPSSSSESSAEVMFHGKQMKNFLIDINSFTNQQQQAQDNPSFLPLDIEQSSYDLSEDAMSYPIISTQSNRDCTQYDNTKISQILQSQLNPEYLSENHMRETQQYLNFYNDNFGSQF
Test: PBM E-score (8-mer binding enrichment) (E-score (-0.5 to 0.5)); higher = stronger / more preferred TF binding
Settings: protein concentration: 200 nM; construct: GST-full length
Whole data set: some 33,000 sequences, median “E-score (-0.5 to 0.5)” near -0.016, cut for the highest 2% near 0.32. Many of the other results were omitted from the sample, so the highest values are more common in it than they were.
# maps each entry to its PBM E-score

Input line: Could you share which PBM E-score value was measured for AGTTCGCC ?
Output line: 0.159

Input line: Item under review: AGGGCGCC . Reported PBM E-score?
Output line: 0.343

Input line: Record request: PBM E-score value, item ATCTTTGC
Output line: 0.262

Input line: # lookup: PBM E-score of ATACTGGC
Output line: -0.284

Input line: Need PBM E-score, item AGTCAAGA
Output line: -0.0455

Input line: Request the reported PBM E-score associated with AGGGGGCG
Output line: -0.0306

Each recorded value in this set is attributed to the supplement of paper PMC3334620.
